organism: Rattus norvegicus; test: Open TG-GATES - Regimen: Daily Repeat; type: toxicity, organism-based, Sprague-Dawley; design: regimen Daily Repeat, gender Male, age 6 weeks; settings: in vivo, po, 0 mg/kg, […], tissue Blood, route gavage, dose level Control, time 14 day
Each item that follows carries a reported Neu.

molecule	Neu (%)
NNC(=O)c1ccncc1 [ISONIAZID]	14.8
CCOC(=O)CCC(=O)O[C@H]1[C@H](O[C@@H]2[C@@H](C)[C@H](O[C@H]3C[C@@](C)(OC)[C@@H](O)[C@H](C)O3)[C@@H](C)C(=O)O[C@H](CC)[C@@](C)(O)[C@H](O)[C@@H](C)C(=O)[C@H](C)C[C@@]2(C)O)O[C@H](C)C[C@@H]1N(C)C [ERYTHROMYCIN ETHYLSUCCINATE]	14.8
CCCNC(=O)NS(=O)(=O)c1ccc(Cl)cc1 [CHLORPROPAMIDE]	17.4
COc1ccc2[nH]c([S+]([O-])Cc3ncc(C)c(OC)c3C)nc2c1 (stereo not drawn) [OMEPRAZOLE]	16.2
COC1=CC(=O)C[C@@H](C)[C@]12Oc1c(Cl)c(OC)cc(OC)c1C2=O [GRISEOFULVIN]	14.4
O=C(CCCN1CCC(O)(c2ccc(Cl)cc2)CC1)c1ccc(F)cc1 [HALOPERIDOL]	16.2
CC1=C(/C=C/C(C)=C/C=C/C(C)=C/CO)C(C)(C)CCC1 [RETINOL]	18.2
NC(N)=Nc1nc(CSCCC(N)=NS(N)(=O)=O)cs1 [FAMOTIDINE]	14.2
